Tested on: normal primary NK cells, pool 1 (3 donors), resting (IL-2 0 ng/mL);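 further: normalised to DMSO-only wells as negative and benzethonium chloride as positive control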
Assay: percent inhibition of viability; higher = more inhibition
Settings: 72 h; 1000 nM
Each record here notes measured percent inhibition of viability.

# Molecule, percent inhibition of viability (%)
measured = [
    ("CS(=O)(=O)c1ccc(-c2cnc(N)c(C(=O)Nc3ccccc3)n2)cc1 [VE-821] (max concentration tested 10000 nM)", 23),
    ("CNC(=O)c1ccc(N2C(=S)N(c3cnc(C#N)c(C(F)(F)F)c3)C(=O)C23CCC3)cc1F [ARN 509] (max concentration tested 10000 nM)", -10.2),
    ("Nc1cc(C(F)(F)F)c(-c2cc(N3CCOCC3)nc(N3CCOCC3)n2)cn1 [Buparlisib] (max concentration tested 10000 nM)", 2.62),
    ("O=C(Nc1cccc(Nc2ncc(Br)c(NCCc3cnc[nH]3)n2)c1)N1CCCC1 [BX-912] (max concentration tested 10000 nM)", -4.14),
]

Reference source: the supplement of paper PMC5908809
